Reported values of z-score for individual entries
assay: ATP-based viability of Huh7 replicon cells – cell-based, CellTiter-Glo luminescence, basal, 48 h, cytotoxicity control for HCV replication inhibitor project, primary screen (AID 1143); conditions: higher = more signal, called active from +8 up or from −8 down;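 note: Huh7 hepatoma cells carrying a hepatitis C replication reporter with no stimulus; test concentration not given here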
Simply state the number, no unit and no words.

COc1cc(OC)c(C(O)C2C=CC3C(=O)NC(=O)C3N2Nc2ccccn2)cc1Br (configuration not stated) : 0.996

Prompt line: Recorded z-score for `COCCOC(=O)N1C(=O)[C@@]2(c3ccccc31)[C@H](c1ccc(OCCO)cc1)N1[C@H](c3ccccc3)[C@H](c3ccccc3)OC(=O)[C@H]1[C@@H]2C(=O)N1CCc2cc(OC)c(OC)cc2C1` , please?
Response line: -2.12

Prompt line: What value of z-score has been reported for the following molecule? `CCOC(=O)[C@H]1C/C=C/C[C@H](C(=O)OCC)C(=O)O[C@H]2[C@@H](OC)O[C@H](CO)[C@@H](OC(=O)c3ccc(Br)cc3)[C@@H]2OC1=O`
Response line: -3.02

Prompt line: Consider the molecule `CCOC(=O)C[C@H]1[C@H](OC(=O)c2ccc(C(=O)c3ccccc3)cc2)[C@@H](NC(=O)c2ccccc2)c2cc(OCCCO)ccc2N1C(=O)c1ccccc1` and give its measured z-score.
Response line: -0.622

Prompt line: What does the record list as z-score for `C#CCN1[C@H](/C=C/C2CC2)[C@H](Cc2ccccc2)OC(=O)[C@@H]1Cc1ccccc1` ?
Response line: -3.28

Prompt line: For the molecule shown here, `COCCCNC(=O)[C@]1(Cc2ccccc2)N=C(c2ccc(OCCCO)cc2)O[C@@H]1c1ccccc1CN=[N+]=[N-]` , give the reported z-score.
Response line: -3.68

Prompt line: Entry under review: `O[C@@H](Cc1ccccc1)[C@@H](/C=C/C1CC1)NCc1cccc(Cl)c1` . Reported z-score?
Response line: -3.2

* * *

assay: probe aDKK1 binding to arrayed compounds – biochemical, biotinylated probe, 635/667 nm fluorescence, primary screen (AID 1099); conditions: small-molecule microarray, higher = more signal;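 note: score merges 667nm spot fluorescence with signal to noise across triplicate slides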
Decision: composite z-score compared against 0.2; not below it gives rule met, below it gives rule not met.

Some entries whose results are on file:
Cc1ccc(S[C@]2(C(=O)O)CC(=O)N(Cc3ccccc3C(F)(F)F)[C@@H]2c2ccc(CO)cc2I)cc1 : rule not met
COc1cc(CO)cc(I)c1O[C@H]1C=C(C(=O)NCCO)C[C@@H](NC[C@@H]2CCCO2)[C@@H]1O : rule not met
CCCCN1CC=CC23O[C@@H]4C=CCOC(=O)[C@@H]4[C@H]2C(=O)N(CCCCCCO)[C@@H]3C1=O (some centres not stated) : rule not met
COC(=O)[C@@]1(Cc2ccc(OC)cc2)[C@H]2c3cc(C(=O)N4CCCC4)n(Cc4nc5ccccc5[nH]4)c3C[C@H]2CN1C(=O)c1ccccc1 : rule met

Prompt line: Please tell me: is the compound `C=CC[C@]1(C(N)=O)N=C(c2ccc(OCCCO)cc2)O[C@H]1c1ccccc1` at or over 0.2 in terms of composite z-score?
Response line: rule met

Prompt line: Record `COC(=O)c1c(CC[C@@H](CO)NC(=O)N[C@@H](Cc2ccccc2)Cn2cc(-c3ccccn3)nn2)oc(C(=O)N2CCOCC2)c1C(=O)OC` ; criterion: composite z-score no lower than 0.2. Met?
Response line: rule not met

Prompt line: Is composite z-score for `COCCOC(=O)N1C(=O)[C@@]2(c3cc(C#CC4=CCCCC4)ccc31)[C@H](c1ccc(OCCO)cc1)N1[C@H](c3ccccc3)[C@H](c3ccccc3)OC(=O)[C@H]1[C@@H]2C(=O)N1CCc2cc(OC)c(OC)cc2C1` at or above 0.2?
Response line: rule met

meta.source: PubChem BioAssay
